- Test system: BT-474 Tam2
- ASSAY SUMMARY: drug sensitivity score (DSS) (DSS (dimensionless)); higher = more sensitive; extreme values may be limits of the assay
- MEASUREMENT CONTEXT: 4-OH-tamoxifen in medium 1 µM; 72 h
drug sensitivity score values by entry

MOLECULE: C=CCn1c(=O)c2cnc(Nc3ccc(N4CCN(C)CC4)cc3)nc2n1-c1cccc(C(C)(C)O)n1 [MK-1775]
drug sensitivity score: 2.77
//
MOLECULE: CNCc1ccc(-c2[nH]c3cc(F)cc4c3c2CCNC4=O)cc1
drug sensitivity score: 0
//
MOLECULE: C[C@@H]1C=C2C(=O)O[C@@H]3CC[C@H](C1)[C@]23O [Galiellalactone]
drug sensitivity score: 0
//
MOLECULE: O=C(CCBr)N1CCN(C(=O)CCBr)CC1 [Pipobroman]
drug sensitivity score: 0
//
MOLECULE: COc1cccc2c1C(=O)c1c(O)c3c(c(O)c1C2=O)C[C@@](O)(C(C)=O)C[C@@H]3O[C@H]1C[C@H](N)[C@H](O)[C@H](C)O1 [Daunorubicin]
drug sensitivity score: 1.15
